FYI, the data here is from patent US8962630B2.

Answer each item with its documented IC50.
- target.system: CDK4/cyclin D1 (Homo sapiens (Human))
- Sequence (P11802 whole entry): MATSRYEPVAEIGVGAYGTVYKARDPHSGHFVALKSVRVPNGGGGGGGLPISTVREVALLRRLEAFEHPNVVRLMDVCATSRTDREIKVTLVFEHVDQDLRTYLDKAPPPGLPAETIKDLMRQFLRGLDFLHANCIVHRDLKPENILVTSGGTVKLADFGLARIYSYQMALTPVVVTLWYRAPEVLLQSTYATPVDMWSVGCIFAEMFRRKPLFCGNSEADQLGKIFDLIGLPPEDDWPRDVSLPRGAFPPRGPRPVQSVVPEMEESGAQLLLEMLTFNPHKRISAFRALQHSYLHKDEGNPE
- Sequence (P24385 whole entry partner): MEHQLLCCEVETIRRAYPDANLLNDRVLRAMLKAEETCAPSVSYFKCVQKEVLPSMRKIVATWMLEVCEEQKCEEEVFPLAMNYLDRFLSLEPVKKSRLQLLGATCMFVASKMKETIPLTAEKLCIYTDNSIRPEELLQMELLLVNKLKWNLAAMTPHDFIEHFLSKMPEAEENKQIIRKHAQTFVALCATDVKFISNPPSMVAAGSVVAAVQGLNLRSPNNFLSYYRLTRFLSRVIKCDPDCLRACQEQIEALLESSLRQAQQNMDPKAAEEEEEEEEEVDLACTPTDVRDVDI
- protocol.details: CDK4/Cyclin D1 enzymatic activity assay (Lance TR-FRET)
- Type: biochemical
- condition.parameters: Table 2; 3 μM ATP; read-out: CDK4

Below: 3 compounds and their reported IC50.
C[C@@H]1CN(c2ccc(Nc3ncc4cc(C(=O)N(C)C)n(C5CCCC5)c4n3)nc2)CCN1C(=O)OC(C)(C)C ... 100 to 1000 nM
C[C@@H](O)CN1CCN(c2ccc(Nc3ncc4cc(C(=O)N(C)C)n(C5CCCC5)c4n3)nc2)CC1 ... 10 to 100 nM
CNC(=O)c1cc2cnc(Nc3ccc(N4CCNCC4)cn3)nc2n1C1CCCC1 ... 10 to 100 nM

With those in mind, consider the next compound.
GET IC50 | system: CDK4/cyclin D1 (Homo sapiens (Human)) | item: "CN(C)C1CCN(c2ccc(Nc3ncc4cc(C#N)n(C5CCCC5)c4n3)nc2)CC1"
1 to 10 nM
